biological target: T1, recombinant human TR-2 with a C-terminal hexahistidine tag (TR-2-His) (human, UniProt O14763 56-207); assay: SPR Biacore 2000; antibody captured on anti-human antibody chip, 226 nM TR-2-His injected, 25 C, 1:1 model;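 note: goat anti-human capture surface amine-coupled on CM5 chip, HBS-P running buffer with BSA, responses normalized to captured antibody level, kinetics from global 1:1 fitting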
T1 construct: also called soluble TR-2-His
Kd overview
API: value field is a number in nM; no unit string.

Exercise: Determine from records and report Kd for anti-TR-2 antibody K (antibody, V domains shown, also called Ab K) VH: QVQLVESGGGVVQPGRSLRLSCAASGFTFSTYGMHWVRQAPGKGLEWVAVIWYDGSNKYYADSVKGRFTISRDNSKNTLYLQMNSLRAEDTAVYYCARDRTVYSSSSPFYYYYYGMDVWGQGTTVTVSS VL: DIQMTQSPSSLSASVGDRVTITCRASQSISSYLNWYQQKPGKAPKLLISATSSFQSGVPSRFSGSGSGTDFTLTISSLQPEDFAAYYCQQSYSTPLTFGGGTKVEIK
Solution: 18

Exercise: Determine from records and report Kd for anti-TR-2 antibody M (antibody, V domains shown, also called Ab M) VH: EVQVVESGGGLVKPGGSLRLSCAASGFTFSSYSMNWVRQAPGKGLEWVSSISSSSSYIYYADSVKGRFTISRDNAKNSLYLQMNSLRAEDTAVYYCARGGSSWYGDWFDPWGQGTLVTVSS VL: DIQMTQSPSSVSASVGDRVTITCRASQGISSWLVWYQQKPGKAPKLLIYAASSLQSGVPSRFSGSGSGTDFTLTISSLQPEDFATYYCQQANSFPFTFGGGTKVEIK
Solution: 37

Exercise: Determine from records and report Kd for anti-TR-2 antibody J (antibody, V domains shown, also called Ab J) VH: QVQLVESGGGVVQPGRSLRLSCAASGFTFNNYGMHWVRQAPGKGLEWVAVIWYDGSNKYYADSVKGRFTISRDNSKNTLYLQMNSLRAEDTAVYYCARDRTVYSNSSPFYYYYYGMDVWGQGTTVTVSS VL: DIQMTQSPSSLSASVGDRVTITCRTSQSISTYLNWYQQKPGKAPKLLISATSSLQSGVPSRFSGSGSGTDFTLTISSLQPEDFATYYCQQSYSTPLTFGGGTKVEIK
Solution: 12
